# Procedure Text: Screening of excipients for their capability to dissolve LAC-34 free base at room temperature
# Assay type: physicochemical
# Measurement Conditions: 22 °C, oil or lipid, thermodynamic from solid, in isopropyl myristate
Readout Type: solubility

### Prompt Data request, read-out solubility, for c1ccc(N(CCC2CCCCN2)C2Cc3ccccc3C2)cc1 (racemic)
### Response > 78 mg/mL

---

# Procedure Text: Screening of excipients for their capability to dissolve LAC-34 free base at room temperature
# Type: physicochemical
# Measurement Conditions: 22 °C, organic solvent or mixture, thermodynamic from solid, in isopropyl alcohol
Readout Type: solubility

### Prompt Data request, read-out solubility, for c1ccc(N(CCC2CCCCN2)C2Cc3ccccc3C2)cc1 (racemic)
### Response > 79 mg/mL

---

# Procedure Text: Dissociation constant (pKa), potentiometric
# Type: physicochemical
# Measurement Conditions: LAC-34 as free base
Provide the reported pKa of each item.
Enter a number only.

### Prompt Data request, read-out pKa, for c1ccc(N(CCC2CCCCN2)C2Cc3ccccc3C2)cc1 (racemic)
### Response 8.09

### Prompt Data request, read-out pKa, for CCCCNc1ccc(C(=O)OCCN(C)C)cc1 [Tetracaine, reference compound]
### Response 8.51

---

# Procedure Text: Screening of excipients for their capability to dissolve LAC-34 free base at room temperature
# Format: physicochemical
# Measurement Conditions: 22 °C, organic solvent or mixture, thermodynamic from solid, in dibutyl adipate
Readout Type: solubility

### Prompt Data request, read-out solubility, for c1ccc(N(CCC2CCCCN2)C2Cc3ccccc3C2)cc1 (racemic) [LAC-34]
### Response > 79 mg/mL

---

# Procedure Text: Screening of excipients for their capability to dissolve LAC-34 free base at room temperature
# Assay type: physicochemical
# Measurement Conditions: 22 °C, organic solvent or mixture, thermodynamic from solid, in hexylene glycol
Readout Type: solubility

### Prompt Data request, read-out solubility, for c1ccc(N(CCC2CCCCN2)C2Cc3ccccc3C2)cc1 (racemic)
### Response > 75 mg/mL

---

# Procedure Text: Solubility of LAC-34 in binary mixtures of solvent and water (anti-solvent)
# Assay type: physicochemical
# Measurement Conditions: DMSO, 0% water, organic solvent or mixture
Readout Type: solubility
In your response, the unit should come after the numeric value.

### Prompt Data request, read-out solubility, for c1ccc(N(CCC2CCCCN2)C2Cc3ccccc3C2)cc1 (racemic) [LAC-34]
### Response 215 mg/mL

---

# Procedure Text: Screening of excipients for their capability to dissolve LAC-34 free base at room temperature
# Type: physicochemical
# Measurement Conditions: 22 °C, oil or lipid, thermodynamic from solid, in mineral oil
Readout Type: solubility

### Prompt Data request, read-out solubility, for c1ccc(N(CCC2CCCCN2)C2Cc3ccccc3C2)cc1 (racemic)
### Response < 50 mg/mL

---

# Procedure Text: Solubility of LAC-34 in binary mixtures of solvent and water (anti-solvent)
# Type: physicochemical
# Measurement Conditions: propylene glycol with 5% water, organic solvent or mixture; PG, 5% water
Readout Type: solubility (mg/mL)
Numbers only here, please. The scale is mg/mL.

### Prompt Data request, read-out solubility, for c1ccc(N(CCC2CCCCN2)C2Cc3ccccc3C2)cc1 (racemic)
### Response 63

---

# Procedure Text: Solubility of LAC-34 in binary mixtures of solvent and water (anti-solvent)
# Format: physicochemical
# Measurement Conditions: ethanol with 15% water, organic solvent or mixture, kinetic from dmso stock; ethanol, 15% water; titrated from an ethanol/LAC-34 solution with water
Readout Type: solubility (mg/mL)
Numbers only here, please. The scale is mg/mL.

### Prompt Data request, read-out solubility, for c1ccc(N(CCC2CCCCN2)C2Cc3ccccc3C2)cc1 (racemic)
### Response 63
